compounds and their reported IC50
Target: recombinant human ULK1 protein (1-649) (Homo sapiens, UniProt O75385)
Construct: recombinant human ULK1 protein (1-649, SignalChem #U01-11G); purchased SignalChem U01-11G
Sequence (O75385 1-649): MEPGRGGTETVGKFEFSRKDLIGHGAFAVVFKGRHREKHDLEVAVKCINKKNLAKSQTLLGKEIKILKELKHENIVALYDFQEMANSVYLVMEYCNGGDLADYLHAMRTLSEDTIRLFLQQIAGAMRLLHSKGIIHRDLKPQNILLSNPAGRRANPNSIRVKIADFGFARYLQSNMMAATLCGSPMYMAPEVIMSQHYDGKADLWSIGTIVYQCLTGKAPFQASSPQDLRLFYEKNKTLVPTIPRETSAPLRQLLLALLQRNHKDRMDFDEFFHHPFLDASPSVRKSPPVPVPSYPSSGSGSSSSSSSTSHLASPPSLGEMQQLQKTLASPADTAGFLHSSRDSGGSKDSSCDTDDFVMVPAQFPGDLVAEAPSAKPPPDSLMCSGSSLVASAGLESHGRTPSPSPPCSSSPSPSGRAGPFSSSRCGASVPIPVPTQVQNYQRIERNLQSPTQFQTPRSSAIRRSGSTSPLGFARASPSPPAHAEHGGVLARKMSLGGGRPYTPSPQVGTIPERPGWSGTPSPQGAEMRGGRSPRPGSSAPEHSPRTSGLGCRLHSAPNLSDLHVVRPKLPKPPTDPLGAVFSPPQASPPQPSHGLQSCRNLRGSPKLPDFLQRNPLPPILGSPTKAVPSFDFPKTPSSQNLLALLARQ
Test: ULK1 inhibition assay (ADP Glo)
Assay type: biochemical
Details: Table 1; 25 uM ATP, MBP substrate, one hour

Here's what some known entries look like.
compound | testResult
O=C(N1CCOCC1)N1CCc2cc(Nc3ncc(C(F)(F)F)c(NC4CC4)n3)ccc2C1 | 1 to 10 nM
CC(O)CN1CCc2cc(Nc3ncc(C(F)(F)F)c(NC4CC4)n3)ccc2C1 (stereo not shown) | < 1 nM
FC(F)(F)c1cnc(Nc2ccc3c(c2)CN(Cc2ccoc2)CC3)nc1NC1CC1 | < 1 nM
FC(F)(F)c1cnc(Nc2ccc3c(c2)CCN(CC2CCNC2)C3)nc1NC1CC1 (stereo not shown) | < 1 nM
O=C(OCCO)c1cnc(Nc2ccc3c(c2)CCNC3)nc1NC1CC1 | > 10 nM
CNC(=O)c1ccccc1Oc1nc(Nc2ccc3c(c2)CCN(CCOC)C3)ncc1Br | > 10 nM

Write down measured IC50 (recombinant human ULK1 protein (1-649) (Homo sapiens, UniProt O75385)) for this compound. FC(F)(F)c1cnc(Nc2ccc3c(c2)CCN(Cc2ccncc2)C3)nc1NC1CC1
< 1 nM

Write down measured IC50 (recombinant human ULK1 protein (1-649) (Homo sapiens, UniProt O75385)) for this compound. CN1CCN(C(=O)N2CCc3cc(Nc4ncc(C(F)(F)F)c(NC5CC5)n4)ccc3C2)CC1
< 1 nM

Write down measured IC50 (recombinant human ULK1 protein (1-649) (Homo sapiens, UniProt O75385)) for this compound. CC(=O)N1CCc2ccc(Nc3ncc(C(F)(F)F)c(NC4CC4)n3)cc2C1
1 to 10 nM

Write down measured IC50 (recombinant human ULK1 protein (1-649) (Homo sapiens, UniProt O75385)) for this compound. CCN1CCc2cc(Nc3ncc(C(F)(F)F)c(NC4CC4)n3)ccc2C1
1 to 10 nM
